Tested on: HCT-116 colon
Experiment: NCI-60 one-dose screen, 48 h
Conditions: 10 µM unless noted
This is part of a sample that, as a whole, favours compounds with a hit. Of some 83,000 tested, about 20% had one in any assay. Activity calls are given as the source filed them. How the source made its calls: active means growth percent below 10; inactive means the rest.
Outcomes: active, inactive

>  <COMPOUND>
CN(C)S(=O)(=O)c1cccc(C(=O)Nc2nc(-c3ccc(F)c(F)c3)cs2)c1

>  <CLASSIFICATION>
inactive

$$$$
>  <COMPOUND>
COc1ccc(C(=O)/C=C/c2c(C(F)(F)F)nc3ccccn23)cc1OC

>  <CLASSIFICATION>
active

$$$$
>  <COMPOUND>
COCCOc1cc2ncnc(N3CCN(c4cc(S(C)(=O)=O)c(C)cc4Cl)CC3)c2cc1OCCOC

>  <CLASSIFICATION>
inactive

$$$$
>  <COMPOUND>
Clc1ccc(/C=N\N=C\c2ccc(Cl)c(Cl)c2)cc1Cl

>  <CLASSIFICATION>
inactive

$$$$
>  <COMPOUND>
CN(C)Cc1ccc(O)c(C(=O)O)c1

>  <CLASSIFICATION>
inactive

$$$$
>  <COMPOUND>
COC(=O)c1cc(N=C2NC(=O)/C(=C/C=C/c3ccccc3)S2)ccc1O

>  <CLASSIFICATION>
inactive

$$$$
>  <COMPOUND>
Cc1ccc(C[P+](c2ccccc2)(c2ccccc2)c2ccccc2)cc1

>  <CLASSIFICATION>
active

$$$$
>  <COMPOUND>
C1CCC([PH+](C2CCCCC2)C2CCCCC2[PH+](C2CCCCC2)C2CCCCC2)CC1.[Au].[CH-]1CCCCC1C1CCCC[N-]1 (stereo not given)

>  <CLASSIFICATION>
active

$$$$
>  <COMPOUND>
CCCn1cc2c(=O)nc3sc(Cc4ccccc4)c(C)n3c2n1

>  <CLASSIFICATION>
inactive

$$$$
>  <COMPOUND>
CCCCCCCCCCC(CN(CC)CC)C(O)c1ccccc1 (stereo not given)

>  <CLASSIFICATION>
inactive

$$$$
